assay: growth inhibitors of H69AR lung tumor, primary screen, human, duplicate replicates (AID 580); conditions: H69AR lung tumor cells viability, ATP luminescence, 72 h; at 10 µM;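 note: 100% = mean luminescence of untreated wells and 0% = no signal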
Activity calls are given as the source filed them.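 Rule for the calls: active = viability at or under a set limit in both replicates, limit being median viability minus 3 SD (cut at about 48% in these data, passing the limit was not always enough); inconclusive = at or under the limit in just one replicate; inactive = at or above the limit in both replicates.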
Hi there, use one of these labels in your reply, thanks! yes (1) for active, no (0) for inactive

// known answers, use as guide
• Cc1ccc2[nH]c(=O)c(CN(CCc3ccccc3)Cc3nnnn3CC3CCCO3)cc2c1 (configuration not stated) = no (0)
• O=C(NCc1ccc(Cl)cc1)c1ccc(COCC(F)(F)F)o1 = no (0)
• CCOc1ccccc1C1N(c2ccc(F)cc2)C(=O)C2CCCN21 (configuration not stated) = no (0)
• Cc1cccc2cc(C(c3nnnn3C(C)(C)C)N3CCN(C(=O)c4ccco4)CC3)c(=O)[nH]c12 (configuration not stated) = no (0)
• CCCCNC(=O)CSc1nc2ccc(N3CCOCC3)cc2c(=O)n1CCc1ccccc1 = no (0)
• COC(=O)Cn1cnc2sc(C)c(S(=O)(=O)N3CCC(C)CC3)c2c1=O = no (0)

Query block: Recorded test outcome, item CC(CCc1ccccc1)NCC(O)c1ccc(O)c(C(N)=O)c1 (configuration not stated)
Result block: no (0)

Query block: Recorded test outcome, item CC(C)[N+]1(C)[C@@H]2CC[C@H]1CC(OC(=O)C(CO)c1ccccc1)C2 (some centres not stated)
Result block: no (0)

Query block: Recorded test outcome, item `COC(=O)Cc1c(C)nc2nc[nH]n2c1=O`
Result block: no (0)

Query block: Recorded test outcome, item COC(=O)c1ccc(COc2ccc(C3C4=C(CCCC4=O)Nc4onc(C)c43)cc2)cc1 (configuration not stated)
Result block: no (0)

Query block: Recorded test outcome, item O=C(NCCc1ccccc1)C1CCCN(S(=O)(=O)c2cccs2)C1 (configuration not stated)
Result block: no (0)

Query block: Recorded test outcome, item O=C(NCC(c1cccnc1)N1CCN(c2ccc(F)cc2)CC1)OCc1ccccc1 (configuration not stated)
Result block: no (0)

Query block: Recorded test outcome, item CN(C)CCCC1(c2ccc(F)cc2)OCc2cc(C#N)ccc21 (configuration not stated)
Result block: no (0)

Query block: Recorded test outcome, item CCOCCCNC(=O)C1CCC(CNS(=O)(=O)c2cccc3nsnc23)CC1 (configuration not stated)
Result block: no (0)

Query block: Recorded test outcome, item `O=C(CCN1CCOCC1)Nc1ccc2c(c1)CCC2`
Result block: no (0)

Query block: Recorded test outcome, item `CN1CCN(S(=O)(=O)c2ccc(NC(=O)Nc3cccc(Cl)c3)cc2)CC1`
Result block: no (0)

---

test: reversal of MRP1-mediated doxorubicin resistance, pilot screen, H69AR cells, doxorubicin co-treatment (AID 601); conditions: H69AR cells + 2 uM doxorubicin, CellTiter-Glo, 72 h; measured here: viability with 2 uM doxorubicin; at 10 µM; stronger effect = lower value
quantity: viability (%)
Quick note: give the figure in %, leave out the unit.

Query block: Requested read-out: viability. Entry: `O=C(CN1C(=O)NC2(CCCCC2)C1=O)Nc1ccc(S(=O)(=O)N2CCOCC2)cc1`
Result block: 82.7

Query block: Requested read-out: viability. Entry: `CCC(=O)Oc1ccc(/C(CC)=C(\CC)c2ccc(OC(=O)CC)cc2)cc1`
Result block: 49.2

Query block: Requested read-out: viability. Entry: `O=C(Nc1ccc(NC(=O)C2CC2)cn1)c1ccccc1Cl`
Result block: 91.4
